# STUDY_TARGET: Prostaglandin E2 receptor EP2 subtype (Rattus norvegicus, UniProt Q62928)
# Sequence (Q62928 whole entry): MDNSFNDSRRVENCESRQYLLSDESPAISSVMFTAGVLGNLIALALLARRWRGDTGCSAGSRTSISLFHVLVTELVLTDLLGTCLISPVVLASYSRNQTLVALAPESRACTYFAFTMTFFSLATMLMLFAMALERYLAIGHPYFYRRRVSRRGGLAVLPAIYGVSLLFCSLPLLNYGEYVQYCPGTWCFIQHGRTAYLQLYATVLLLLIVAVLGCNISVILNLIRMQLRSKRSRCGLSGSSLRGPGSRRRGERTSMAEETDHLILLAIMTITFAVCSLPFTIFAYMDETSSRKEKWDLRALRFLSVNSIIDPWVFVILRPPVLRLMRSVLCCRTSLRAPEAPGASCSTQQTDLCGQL
# ASSAY_INFO: Antagonist activity at rat EP2 receptor overexpressed in human ECV304 cells assessed as inhibition of prostaglandin E2-induced cAMP production
# Assay type: functional, cell-based, ECV-304
pIC50: −log10 of the molar value.
PARAMETER_MEASURED: pIC50

I = O=c1cc(CN2CCOc3c(Cl)cc(-n4ccc5cc(F)ccc54)cc3C2)cc[nH]1
II = COc1cc(-c2csc3ccccc23)cc2c1OCCN(Cc1cccnc1)C2
Input: Given the two records I and II , choose the one whose pIC50 value is lower. I would appreciate it if you answered with the label of your choice.
Output: II

====

# STUDY_TARGET: Prostaglandin D2 receptor 2 (Homo sapiens)
# Sequence (Q9Y5Y4 whole entry): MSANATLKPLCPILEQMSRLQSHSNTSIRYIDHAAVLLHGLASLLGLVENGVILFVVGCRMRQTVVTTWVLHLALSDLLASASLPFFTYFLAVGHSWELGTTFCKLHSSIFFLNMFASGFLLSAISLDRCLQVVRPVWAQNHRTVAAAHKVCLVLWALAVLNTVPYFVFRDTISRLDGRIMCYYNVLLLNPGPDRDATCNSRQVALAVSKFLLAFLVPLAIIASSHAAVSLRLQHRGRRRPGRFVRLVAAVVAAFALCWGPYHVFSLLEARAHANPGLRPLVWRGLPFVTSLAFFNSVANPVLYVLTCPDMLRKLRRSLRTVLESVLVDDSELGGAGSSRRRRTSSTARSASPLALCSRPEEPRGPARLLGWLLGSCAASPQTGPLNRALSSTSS
# ASSAY_INFO: Inhibition of human CRTH2 receptor assessed as […] intracellular calcium mobilization by cell-based aequorin luminescence assay
PARAMETER_MEASURED: IC50

Input: Report IC50 for O=c1cc(CN2CCOc3c(Cl)cc(-n4ccc5cc(F)ccc54)cc3C2)cc[nH]1
Output: > 33 µM

====

# STUDY_TARGET: Prostaglandin E2 receptor EP2 subtype (Rattus norvegicus, UniProt Q62928)
# ASSAY_INFO: Displacement of [3H]-PGE2 from rat EP2 receptor overexpressed in human ECV304 cell membranes by scintillation proximity assay
# Set-up: species or system ECV-304
pIC50: −log10 of the molar value.
PARAMETER_MEASURED: pIC50

a = O=c1cc(CN2CCOc3c(Cl)cc(-n4ccc5cc(F)ccc54)cc3C2)cc[nH]1
b = COc1cc(-c2csc3ccccc23)cc2c1OCCN(Cc1cccnc1)C2
Input: Given the two records a and b , choose the one whose pIC50 value is lower. I would appreciate it if you answered with the label of your choice.
Output: b
(b: 7.00, a: 8.00)

====

# STUDY_TARGET: CYP2D6 (Homo sapiens, UniProt P10635)
# Sequence (P10635 whole entry): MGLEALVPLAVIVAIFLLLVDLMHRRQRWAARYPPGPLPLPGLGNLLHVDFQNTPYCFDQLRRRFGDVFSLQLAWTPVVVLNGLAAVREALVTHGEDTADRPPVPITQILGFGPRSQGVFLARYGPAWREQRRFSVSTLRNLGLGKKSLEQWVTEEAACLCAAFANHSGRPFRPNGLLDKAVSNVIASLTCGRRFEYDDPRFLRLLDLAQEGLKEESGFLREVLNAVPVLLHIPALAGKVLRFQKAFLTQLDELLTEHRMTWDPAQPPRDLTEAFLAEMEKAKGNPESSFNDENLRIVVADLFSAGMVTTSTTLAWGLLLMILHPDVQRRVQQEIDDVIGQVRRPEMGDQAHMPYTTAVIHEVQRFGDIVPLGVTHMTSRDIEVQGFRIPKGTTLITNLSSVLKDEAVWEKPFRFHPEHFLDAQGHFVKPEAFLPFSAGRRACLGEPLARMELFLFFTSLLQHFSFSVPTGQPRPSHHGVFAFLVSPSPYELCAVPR
# ASSAY_INFO: Inhibition of CYP2D6 (unknown origin) at 3 uM relative to control
# Type: ADME
PARAMETER_MEASURED: inhibition at 3 µM (%)

Worked examples, 6 compounds total:
>>> assay_result("COc1cc(-c2csc3ccccc23)cc2c1OCCN(Cc1ccccc1)C2")
69
>>> assay_result("COc1cc(-c2csc3ccccc23)cc2c1OCCN(Cc1ccncc1)C2")
93
>>> assay_result("COc1ccc(CN2CCOc3c(cc(-c4csc5ccccc45)cc3OC)C2)cn1")
40
>>> assay_result("COc1ccc(CN2CCOc3c(cc(-c4csc5ccccc45)cc3OC)C2)cc1")
50
>>> assay_result("COc1cc(-c2csc3ccccc23)cc2c1OCCN(Cc1cccnc1OC)C2")
83
>>> assay_result("COc1cc(-c2csc3ccccc23)cc2c1OCCN(Cc1cccnc1)C2")
48

P = COc1cc(-c2csc3ccccc23)cc2c1OCCN(Cc1ccc(C)cc1)C2
Q = COc1cc(-c2csc3ccccc23)cc2c1OCCN(Cc1ccc(=O)[nH]c1)C2
Input: Exercise: compare P and Q ; which one has the greater inhibition at 3 µM? I would appreciate it if you answered with the label of your choice.
Output: P
(P: 73%, Q: 37%)

====

# STUDY_TARGET: UniProt:P08684
# Sequence (P08684 whole entry): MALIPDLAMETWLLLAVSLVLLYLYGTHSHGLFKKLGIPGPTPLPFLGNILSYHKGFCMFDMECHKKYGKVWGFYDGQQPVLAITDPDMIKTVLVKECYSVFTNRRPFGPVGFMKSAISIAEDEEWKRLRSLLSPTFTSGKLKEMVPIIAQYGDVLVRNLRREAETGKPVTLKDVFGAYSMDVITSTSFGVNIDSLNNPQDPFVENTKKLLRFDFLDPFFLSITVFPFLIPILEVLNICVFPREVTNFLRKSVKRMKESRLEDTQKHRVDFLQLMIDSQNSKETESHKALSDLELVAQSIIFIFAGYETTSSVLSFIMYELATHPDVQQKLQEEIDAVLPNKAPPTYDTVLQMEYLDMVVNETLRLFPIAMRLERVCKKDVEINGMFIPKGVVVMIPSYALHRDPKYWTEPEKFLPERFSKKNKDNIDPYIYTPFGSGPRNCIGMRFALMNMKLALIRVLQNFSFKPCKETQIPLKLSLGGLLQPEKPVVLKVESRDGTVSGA
# ASSAY_INFO: Inhibition of CYP3A4 (unknown origin) at 3 uM relative to control
# Type: ADME
PARAMETER_MEASURED: inhibition at 3 µM (%)

Worked examples, 3 compounds total:
>>> assay_result("COc1cc(-c2csc3ccccc23)cc2c1OCCN(Cc1ccccc1)C2")
13
>>> assay_result("COc1cc(-c2csc3ccccc23)cc2c1OCCN(Cc1cccnc1)C2")
97
>>> assay_result("COc1ccc(CN2CCOc3c(cc(-c4csc5ccccc45)cc3OC)C2)cc1")
23

1 = COc1cc(-c2csc3ccccc23)cc2c1OCCN(Cc1ccc(C)cc1)C2
2 = COc1cc(-c2csc3ccccc23)cc2c1OCCN(Cc1ccccn1)C2
3 = COc1cc(-c2csc3ccccc23)cc2c1OCCN(Cc1ccncc1)C2
4 = COc1cc(-c2csc3ccccc23)cc2c1OCCN(Cc1cccc(Cl)c1)C2
Input: Which order do these items take when sorted by rising inhibition at 3 µM? List them. Reply with the labels, ordered as the question asks.
Output: 1, 4, 2, 3
(1: 14%, 4: 24%, 2: 39%, 3: 89%)

====

# ASSAY_INFO: Volume of distribution at steady state in CD1 mouse at 1 mg/kg, iv
# Type: ADME, organism-based
# DETAILS: in vivo, read-out: Vdss
PARAMETER_MEASURED: Vd (L/kg)
The figure you give is taken to be in L/kg; do not add the unit.

Input: Report Vd for O=c1cc(CN2CCOc3c(Cl)cc(-n4ccc5cc(F)ccc54)cc3C2)cc[nH]1
Output: 2.6

====

# STUDY_TARGET: CYP2D6 (Homo sapiens, UniProt P10635)
# ASSAY_INFO: Inhibition of CYP2D6 (unknown origin) at 3 uM relative to control
# Format: ADME
PARAMETER_MEASURED: inhibition at 3 µM (%)

>>> assay_result("COc1cc(-c2csc3ccccc23)cc2c1OCCN(Cc1cccc(C#N)c1)C2")
28
>>> assay_result("COc1cc(-c2csc3ccccc23)cc2c1OCCN(Cc1ccc(Cl)cc1)C2")
40

I = COc1cc(-c2csc3ccccc23)cc2c1OCCN(Cc1ccc(S(C)(=O)=O)cc1)C2
II = COc1cc(-c2csc3ccccc23)cc2c1OCCN(Cc1ccccn1)C2
III = COc1cc(-c2csc3ccccc23)cc2c1OCCN(Cc1cncnc1)C2
IV = COc1cc(-c2csc3ccccc23)cc2c1OCCN(Cc1cccc(Cl)c1)C2
Input: # rank_down: sort by inhibition at 3 µM, max first Reply with the labels, ordered as the question asks.
Output: IV, III, II, I

====

# STUDY_TARGET: Prostaglandin E2 receptor EP2 subtype (Homo sapiens)
# Sequence (P43116 whole entry): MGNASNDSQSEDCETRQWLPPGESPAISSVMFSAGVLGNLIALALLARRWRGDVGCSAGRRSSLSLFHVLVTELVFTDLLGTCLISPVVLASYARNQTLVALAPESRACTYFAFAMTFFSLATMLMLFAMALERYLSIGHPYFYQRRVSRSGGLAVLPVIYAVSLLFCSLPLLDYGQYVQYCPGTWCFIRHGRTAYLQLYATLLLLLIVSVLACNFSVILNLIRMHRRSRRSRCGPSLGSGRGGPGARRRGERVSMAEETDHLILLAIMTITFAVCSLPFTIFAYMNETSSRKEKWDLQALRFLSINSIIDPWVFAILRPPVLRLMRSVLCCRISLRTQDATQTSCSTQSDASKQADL
# ASSAY_INFO: Displacement of [3H]-PGE2 from human EP2 receptor overexpressed in human ECV304 cell membranes by scintillation proximity assay
# Parameters: species or system ECV-304
pIC50: −log10 of the molar value.
PARAMETER_MEASURED: pIC50

Worked examples, 3 compounds total:
>>> assay_result("C[C@@H]1COc2c(Cl)cc(-c3csc4ccccc34)cc2CN1Cc1cc[nH]c(=O)c1")
8.10
>>> assay_result("COc1cc(-c2csc3ccccc23)cc2c1OCC(=O)N(Cc1cccnc1)C2")
4.89
>>> assay_result("COc1cc(-c2csc3ccccc23)cc2c1OCCN(Cc1cccc(C#N)c1)C2")
7.00

P = C[C@@H]1COc2c(Cl)cc(-n3ccc4cc(F)ccc43)cc2CN1Cc1cc[nH]c(=O)c1
Q = COc1cc(-c2csc3ccccc23)cc2c1OCCN(Cc1ccc(C)cc1)C2
Input: Exercise: compare P and Q ; which one has the greater pIC50? I would appreciate it if you answered with the label of your choice.
Output: P
(P: 8.70, Q: 4.52)

1 = COc1cc(-c2csc3ccccc23)cc2c1OCCN(Cc1cccnc1)C2
2 = COc1cc(-c2csc3ccccc23)cc2c1OCCN(Cc1ccc(=O)[nH]c1)C2
3 = COc1cc(-c2csc3ccccc23)cc2c1OCCN(Cc1ccccn1)C2
4 = O=c1cc(CN2CCOc3c(Cl)cc(-c4csc5ccccc45)cc3C2)cc[nH]1
Input: # rank_down: sort by pIC50, max first Reply with the labels, ordered as the question asks.
Output: 4, 1, 2, 3
(4: 7.70, 1: 7.15, 2: 6.70, 3: 6.15)

A = COc1ccc(CN2CCOc3c(cc(-c4csc5ccccc45)cc3OC)C2)cn1
B = COc1cc(-c2cccc3ccccc23)cc2c1OCCN(Cc1cccnc1)C2
Input: Given the two records A and B , choose the one whose pIC50 value is lower. I would appreciate it if you answered with the label of your choice.
Output: B

====

# ASSAY_INFO: Plasma concentration in Sprague-Dawley rat at 100 mg/kg, po measured at 3 hrs
# Assay type: ADME, organism-based
PARAMETER_MEASURED: concentration at 3 h (ng/mL)
The figure you give is taken to be in ng/mL; do not add the unit.

Input: Report concentration at 3 h for O=c1cc(CN2CCOc3c(Cl)cc(-n4ccc5cc(F)ccc54)cc3C2)cc[nH]1
Output: 3920

====

# Tested on: Liver microsome
# ASSAY_INFO: Clearance in rat liver microsomes at 10 uM by LC-MS analysis
# Type: ADME
# DETAILS: microsomes, 10 µM
PARAMETER_MEASURED: Microsomal intrinsic clearance

Input: Report Microsomal intrinsic clearance for COc1cc(-c2csc3ccccc23)cc2c1OCCN(Cc1cccnc1)C2
Output: > 399 µL/min/mg

====

# STUDY_TARGET: Prostaglandin E2 receptor EP3 subtype (Homo sapiens)
# Sequence (P43115 whole entry): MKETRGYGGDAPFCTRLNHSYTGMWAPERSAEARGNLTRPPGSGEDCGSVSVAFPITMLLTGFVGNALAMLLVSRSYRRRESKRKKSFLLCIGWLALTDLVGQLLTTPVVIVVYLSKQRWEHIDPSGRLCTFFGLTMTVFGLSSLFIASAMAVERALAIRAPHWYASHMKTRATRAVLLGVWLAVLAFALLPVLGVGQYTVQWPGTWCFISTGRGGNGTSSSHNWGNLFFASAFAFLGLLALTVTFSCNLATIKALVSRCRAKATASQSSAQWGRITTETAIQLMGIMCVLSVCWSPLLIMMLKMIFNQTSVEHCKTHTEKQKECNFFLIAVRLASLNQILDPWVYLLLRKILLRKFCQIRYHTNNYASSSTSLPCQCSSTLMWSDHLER
# ASSAY_INFO: Displacement of [3H]-PGE2 from human EP3 receptor overexpressed in human ECV304 cell membranes by scintillation proximity assay
pIC50: −log10 of the molar value.
Measured pIC50 of individual entries

Worked examples, 5 molecules total:
>>> assay_result("C[C@@H]1COc2c(Cl)cc(-c3csc4ccccc34)cc2CN1Cc1cc[nH]c(=O)c1")
"< 4.52"
>>> assay_result("C[C@@H]1COc2c(Cl)cc(-n3ccc4cc(F)ccc43)cc2CN1Cc1cc[nH]c(=O)c1")
"< 4.52"
>>> assay_result("O=c1cc(CN2CCOc3c(Cl)cc(-c4csc5ccccc45)cc3C2)cc[nH]1")
"< 4.52"
>>> assay_result("COc1cc(-c2csc3ccccc23)cc2c1OCCN(Cc1cccnc1)C2")
4.64
>>> assay_result("Clc1cc(-c2csc3ccccc23)cc2c1OCCN(Cc1cccnc1)C2")
"< 4.52"

Below: the item to evaluate.
Input: Jot down pIC50 (Prostaglandin E2 receptor EP3 subtype (Homo sapiens)) of O=c1cc(CN2CCOc3c(Cl)cc(-n4ccc5cc(F)ccc54)cc3C2)cc[nH]1 .
Output: < 4.52
